target: PKD1L3/PKD2L1 (Mus musculus, UniProt A2A259+Q2EG98); assay: Fura-2 Ca2+ imaging, neutralization method
Sequence (A2A259 whole entry): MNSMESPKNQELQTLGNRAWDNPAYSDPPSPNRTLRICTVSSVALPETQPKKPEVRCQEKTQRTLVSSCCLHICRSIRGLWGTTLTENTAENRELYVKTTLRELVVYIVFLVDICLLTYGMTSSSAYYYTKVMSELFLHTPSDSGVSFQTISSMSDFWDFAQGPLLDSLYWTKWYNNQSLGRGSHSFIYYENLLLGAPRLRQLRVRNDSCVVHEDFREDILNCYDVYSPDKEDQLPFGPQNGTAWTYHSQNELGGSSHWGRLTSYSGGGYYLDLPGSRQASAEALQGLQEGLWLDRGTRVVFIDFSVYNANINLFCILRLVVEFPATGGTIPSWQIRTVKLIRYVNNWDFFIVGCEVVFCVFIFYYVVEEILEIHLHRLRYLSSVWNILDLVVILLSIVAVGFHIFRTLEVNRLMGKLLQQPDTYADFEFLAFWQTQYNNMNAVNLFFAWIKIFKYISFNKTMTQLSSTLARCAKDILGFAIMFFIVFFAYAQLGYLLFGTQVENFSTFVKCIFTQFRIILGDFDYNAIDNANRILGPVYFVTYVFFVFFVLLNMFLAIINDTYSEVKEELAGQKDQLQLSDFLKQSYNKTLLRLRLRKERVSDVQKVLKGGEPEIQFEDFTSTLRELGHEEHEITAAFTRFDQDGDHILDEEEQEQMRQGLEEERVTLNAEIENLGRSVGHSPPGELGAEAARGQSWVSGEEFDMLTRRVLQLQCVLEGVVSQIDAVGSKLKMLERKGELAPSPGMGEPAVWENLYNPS
Sequence (Q2EG98 21-2151): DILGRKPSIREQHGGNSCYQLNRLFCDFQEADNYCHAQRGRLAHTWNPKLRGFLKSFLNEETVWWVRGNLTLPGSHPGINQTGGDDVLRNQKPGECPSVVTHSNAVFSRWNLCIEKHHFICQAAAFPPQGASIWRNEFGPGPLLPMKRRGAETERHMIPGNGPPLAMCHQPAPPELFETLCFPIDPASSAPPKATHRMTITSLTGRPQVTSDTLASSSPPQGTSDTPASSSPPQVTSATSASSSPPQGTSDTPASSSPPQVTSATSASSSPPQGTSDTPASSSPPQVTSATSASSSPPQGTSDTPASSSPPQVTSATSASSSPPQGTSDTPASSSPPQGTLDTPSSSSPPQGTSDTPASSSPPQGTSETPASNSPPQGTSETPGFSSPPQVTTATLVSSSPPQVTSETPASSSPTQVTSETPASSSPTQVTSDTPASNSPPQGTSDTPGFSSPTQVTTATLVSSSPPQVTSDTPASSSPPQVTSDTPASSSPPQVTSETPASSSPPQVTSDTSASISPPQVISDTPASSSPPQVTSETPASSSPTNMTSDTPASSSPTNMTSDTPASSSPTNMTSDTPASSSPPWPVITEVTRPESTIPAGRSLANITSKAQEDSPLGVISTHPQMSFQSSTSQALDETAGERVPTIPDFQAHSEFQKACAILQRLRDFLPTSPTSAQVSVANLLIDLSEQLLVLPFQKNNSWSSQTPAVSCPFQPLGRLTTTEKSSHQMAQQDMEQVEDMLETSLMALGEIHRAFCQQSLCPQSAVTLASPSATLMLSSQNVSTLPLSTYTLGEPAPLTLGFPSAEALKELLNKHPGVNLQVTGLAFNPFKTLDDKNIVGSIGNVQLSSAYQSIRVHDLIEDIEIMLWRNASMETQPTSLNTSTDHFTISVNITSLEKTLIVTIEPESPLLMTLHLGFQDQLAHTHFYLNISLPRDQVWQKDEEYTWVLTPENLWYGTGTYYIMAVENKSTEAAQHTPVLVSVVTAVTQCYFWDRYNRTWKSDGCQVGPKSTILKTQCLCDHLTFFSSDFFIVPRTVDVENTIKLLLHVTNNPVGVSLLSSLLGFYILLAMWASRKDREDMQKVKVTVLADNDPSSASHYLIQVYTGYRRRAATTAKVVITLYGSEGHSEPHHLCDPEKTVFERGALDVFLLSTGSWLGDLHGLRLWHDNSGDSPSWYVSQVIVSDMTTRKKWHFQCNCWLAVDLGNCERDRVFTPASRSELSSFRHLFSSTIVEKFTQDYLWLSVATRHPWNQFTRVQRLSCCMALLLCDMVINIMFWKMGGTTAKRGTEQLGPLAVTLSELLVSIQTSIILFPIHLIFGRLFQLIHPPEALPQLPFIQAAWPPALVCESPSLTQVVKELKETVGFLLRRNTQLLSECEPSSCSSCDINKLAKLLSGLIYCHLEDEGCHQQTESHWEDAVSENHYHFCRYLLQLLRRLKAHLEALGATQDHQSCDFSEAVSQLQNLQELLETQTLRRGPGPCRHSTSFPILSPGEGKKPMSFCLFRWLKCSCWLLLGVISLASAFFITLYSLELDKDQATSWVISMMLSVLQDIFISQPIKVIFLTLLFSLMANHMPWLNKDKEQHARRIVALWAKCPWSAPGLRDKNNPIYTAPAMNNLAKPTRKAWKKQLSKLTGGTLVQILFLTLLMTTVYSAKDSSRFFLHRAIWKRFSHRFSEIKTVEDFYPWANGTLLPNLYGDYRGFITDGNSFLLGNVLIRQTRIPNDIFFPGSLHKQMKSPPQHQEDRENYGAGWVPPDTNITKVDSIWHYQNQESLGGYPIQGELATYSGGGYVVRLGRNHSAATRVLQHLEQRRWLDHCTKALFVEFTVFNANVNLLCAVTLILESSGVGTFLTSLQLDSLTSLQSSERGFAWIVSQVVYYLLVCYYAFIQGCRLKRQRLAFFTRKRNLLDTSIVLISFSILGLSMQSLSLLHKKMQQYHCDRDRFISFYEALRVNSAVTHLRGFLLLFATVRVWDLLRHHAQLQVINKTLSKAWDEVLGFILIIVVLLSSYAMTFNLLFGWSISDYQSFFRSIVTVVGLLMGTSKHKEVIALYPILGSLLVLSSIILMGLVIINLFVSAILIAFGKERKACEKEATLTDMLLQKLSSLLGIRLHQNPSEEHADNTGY
I'd be grateful if you could share measured IC50 for these entries.
One number for each entry, in µM.

- COMPOUND: "COc1cc(CNC(=O)CCCCCCC(C)C)ccc1O [dihydrocapsaicin]"
  MEASURE_UNIT: "µM"
  VALUE: 55

Look at each compound and report its IC50.
1. COc1cc(CNC(=O)CCCC/C=C/C(C)C)ccc1O
2. COc1ccc(CCCOC(Cn2ccnc2)c2ccc(OC)cc2)cc1 (stereo not shown)
3. CCCCC[C@H](O)CC(=O)CCc1ccc(O)c(OC)c1

1: 32.5; 2: 48.1; 3: 85.9
